Tested on: rodent lifetime carcinogenesis bioassay, tumor incidence TD50
assayComment: carcinogenic potency in animals, long-term in vivo studies, CPDB compilation (AID 1745844)
testSettings: rat; strain Fischer 344; females; in drinking water; site: adrenal medulla; lesion: pheochromocytoma; dosed 45 weeks; study length 126 weeks
readoutLabel: TD50 (mg/kg/day)
Please give a number only; it is taken to be in mg/kg/day.

Sure, the documented TD50 for `O=NN1CCOCC1` is 0.325

###

Test system: rodent lifetime carcinogenesis bioassay, tumor incidence TD50
assayComment: carcinogenic potency in animals, long-term in vivo studies, CPDB compilation (AID 1745844)
testSettings: rat; strain F344/DuCrj; males; in drinking water; site: duodenum; lesion: several types; types named in the paper; dosed 99 weeks; study length 111 weeks
readoutLabel: TD50

Sure, the documented TD50 for `CCN(N=O)C(N)=O` is 31.2 mg/kg/day
